Molecular target: binding of His-XIAP(BIR2)-avi fusion protein to GST-RIPK2 fusion protein (RIPK2/XIAP) (Homo sapiens)
Construct: made in house; host or cells: baculovirus infected Sf9 cells
Test: RIPK2-XIAP binding competition PPI assay (TR-FRET)
Conditions: RIPK2/XIAP binding competition PPI assay, Amax; read-out: PPI Amax bin
Emax values for the compounds below.
Experimental endpoint: Emax

[
  {
    "Compound": "COc1cc2ncc(-c3cc(F)c(OC)c(NS(=O)(=O)c4ccn(C)n4)c3)n2cc1S(=O)(=O)C(C)(C)C [Example 134]",
    "Measurement": "> 80%"
  },
  {
    "Compound": "CC(C)(C)S(=O)(=O)c1cn2c(-c3cc(F)c(N)nc3F)cnc2cc1-c1cc[nH]n1 [Example 37]",
    "Measurement": "> 80%"
  },
  {
    "Compound": "COCCn1cc(-c2cc3ncc(-c4cc(F)c(N)nc4F)n3cc2S(=O)(=O)C(C)(C)C)cn1 [Example 23]",
    "Measurement": "> 80%"
  },
  {
    "Compound": "COc1cc2ncc(-c3ccc4nc(N)n(C)c4c3)n2cc1S(=O)(=O)C(C)(C)C [Example 100]",
    "Measurement": "< 30%"
  },
  {
    "Compound": "CCOc1cc2ncc(-c3cc(F)c(OC)c(NS(=O)(=O)c4cnn(C)c4)c3)n2cc1S(=O)(=O)C(C)C [Example 138]",
    "Measurement": "> 80%"
  },
  {
    "Compound": "COc1cc2ncc(-c3cccc(NS(=O)(=O)C4CCN(C(=O)OC(C)(C)C)CC4)c3)n2cc1S(=O)(=O)C(C)(C)C [Example 157]",
    "Measurement": "55 to 80%"
  },
  {
    "Compound": "COc1cc2ncc(-c3ccc4nc(N)[nH]c4c3)n2cc1S(=O)(=O)C(C)(C)C [Example 98]",
    "Measurement": "< 30%"
  },
  {
    "Compound": "CC(C)(C)S(=O)(=O)c1cn2c(-c3cnc4[nH]ncc4c3)cnc2cc1OCCO [Example 222]",
    "Measurement": "< 30%"
  },
  {
    "Compound": "CC(C)(C)S(=O)(=O)c1cn2c(-c3cc(F)c(N)nc3F)cnc2cc1OCCN1CC(O)C1 [Example 41]",
    "Measurement": "> 80%"
  },
  {
    "Compound": "CC(C)(C)S(=O)(=O)c1cn2c(-c3cc(F)c(N)nc3F)cnc2cc1OCC(F)CO (stereo not drawn) [Example 203]",
    "Measurement": "> 80%"
  },
  {
    "Compound": "CN(C)CCOc1cc2ncc(-c3cc(F)c(N)nc3F)n2cc1S(=O)(=O)C(C)(C)C [Example 20]",
    "Measurement": "> 80%"
  },
  {
    "Compound": "COc1cc2ncc(-c3cc(NS(=O)(=O)c4cnn(C)c4)c(OC)c(OC)c3)n2cc1N1CC(C)CC1=O (single isomer, unassigned) [Example 274]",
    "Measurement": "> 80%"
  },
  {
    "Compound": "C[C@@H](O)COc1cc2ncc(-c3ccc(N)nc3F)n2cc1S(=O)(=O)C(C)(C)C [Example 250]",
    "Measurement": "> 80%"
  },
  {
    "Compound": "COc1cc2ncc(-c3cc(F)c(OC)c(NS(=O)(=O)c4cc(C)sn4)c3)n2cc1S(=O)(=O)C(C)(C)C [Example 292]",
    "Measurement": "30 to 55%"
  },
  {
    "Compound": "C[C@H](O)COc1cn2ncc(-c3cc(F)c(N)nc3F)c2cc1S(=O)(=O)C(C)(C)C [Example 45]",
    "Measurement": "> 80%"
  }
]

###

Target: binding of His-XIAP(BIR2)-avi fusion protein to GST-RIPK2 fusion protein (RIPK2/XIAP) (Homo sapiens, UniProt O43353)
Construct: made in house; host or cells: baculovirus infected Sf9 cells
Sequence (O43353 1-310 limits assumed): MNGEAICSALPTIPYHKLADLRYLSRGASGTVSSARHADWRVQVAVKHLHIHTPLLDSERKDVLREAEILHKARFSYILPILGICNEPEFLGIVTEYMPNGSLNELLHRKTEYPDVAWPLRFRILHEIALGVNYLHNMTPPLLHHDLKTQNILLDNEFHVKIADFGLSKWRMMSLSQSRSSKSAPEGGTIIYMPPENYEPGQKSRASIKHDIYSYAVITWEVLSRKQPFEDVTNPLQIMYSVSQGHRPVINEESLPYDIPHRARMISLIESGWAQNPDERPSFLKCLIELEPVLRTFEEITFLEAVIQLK
Test: RIPK2-XIAP binding competition PPI assay (TR-FRET)
Details: RIPK2/XIAP binding competition PPI assay, Amax; read-out: PPI Amax bin
Text: The ability of selected compounds of Formula (I) to inhibit the binding of an His-XIAP(BIR2)-avi fusion protein to a GST-RIPK2 fusion protein was quantified employing the TR-FRET-based competition assay as described in the following paragraphs. […]
Emax values for the compounds below.

[
  {
    "Compound": "Cc1nc(N)c(F)cc1-c1cnc2cc(OCCO)c(S(=O)(=O)C(C)(C)C)cn12 [Example 51]",
    "Emax": "< 30%"
  },
  {
    "Compound": "CCS(=O)(=O)c1cn2c(-c3cc(F)c(OC)c(NS(=O)(=O)c4cnn(C)c4)c3)cnc2cc1OC [Example 242]",
    "Emax": "> 80%"
  },
  {
    "Compound": "COc1cc2ncc(-c3ccc4nn(C)cc4c3)n2cc1S(=O)(=O)C(C)(C)C [Example 111]",
    "Emax": "< 30%"
  },
  {
    "Compound": "COc1cc2ncc(-c3cc(F)c(N)nc3F)n2cc1C1(OC)CCOCC1 [Example 76]",
    "Emax": "> 80%"
  },
  {
    "Compound": "CC1(COc2cc3ncc(-c4cc(F)c(N)nc4F)n3cc2S(=O)(=O)C(C)(C)C)COC1 [Example 26]",
    "Emax": "> 80%"
  },
  {
    "Compound": "C[C@@H](O)CCOc1cc2ncc(-c3cc(F)c(N)nc3F)n2cc1S(=O)(=O)C(C)(C)C [Example 36]",
    "Emax": "> 80%"
  },
  {
    "Compound": "COc1cc(NS(=O)(=O)c2cnn(C)c2)cc(-c2cnc3cc(OC)c(S(=O)(=O)C(C)(C)C)cn23)c1 [Example 285]",
    "Emax": "> 80%"
  },
  {
    "Compound": "C[C@@H](O)COc1cn2ncc(-c3cc(F)c(N)nc3F)c2cc1S(=O)(=O)C(C)(C)C [Example 259]",
    "Emax": "> 80%"
  }
]

###

Emax values for the compounds below.
Molecular target: binding of His-XIAP(BIR2)-avi fusion protein to GST-RIPK2 fusion protein (RIPK2/XIAP) (Homo sapiens)
Construct: made in house; host or cells: baculovirus infected Sf9 cells
Experiment: RIPK2-XIAP binding competition PPI assay (TR-FRET)
Conditions: RIPK2/XIAP binding competition PPI assay, Amax; read-out: PPI Amax bin
From the text: The ability of selected compounds of Formula (I) to inhibit the binding of an His-XIAP(BIR2)-avi fusion protein to a GST-RIPK2 fusion protein was quantified employing the TR-FRET-based competition assay as described in the following paragraphs. […]

[
  {
    "Structure string": "COc1cc2ncc(-c3cc(F)c(OC)c4[nH]cnc34)n2cc1S(=O)(=O)C(C)(C)C",
    "Emax": "30 to 55%"
  },
  {
    "Structure string": "CC(C)(O)COc1cc2ncc(-c3cc(F)c(N)nc3F)n2cc1S(=O)(=O)C(C)(C)C",
    "Emax": "> 80%"
  },
  {
    "Structure string": "COc1cc2ncc(-c3cc(F)c(N)nc3F)n2cc1S(=O)(=O)C(C)(C)CCCO",
    "Emax": "> 80%"
  },
  {
    "Structure string": "COc1cc2ncc(-c3cc(F)c(OC)c(NS(=O)(=O)c4cccnc4)c3)n2cc1S(=O)(=O)C(C)(C)C",
    "Emax": "> 80%"
  }
]

###

Target: GST-RIPK2 fusion protein (human RIPK2, amino acids 1-310) (Homo sapiens)
Construct: made in house; host or cells: baculovirus infected Sf9 cells
Test: RIPK2 binding competition assay (TR-FRET, Tracer 199 displacement)
Conditions: 10 nM Tracer 199, 1 nM GST-RIPK2, read-out: RIPK2 IC50
Experimental endpoint: IC50

[
  {
    "Structure string": "COc1c(F)cc(-c2cnc3cc(OCCO)c(S(=O)(=O)C(C)(C)C)cn23)cc1NS(C)(=O)=O",
    "Assayed system": "GST-RIPK2 fusion protein (human RIPK2, amino acids 1-310) (Homo sapiens)",
    "Experimental endpoint": "IC50",
    "Measurement": "< 0.001 µM"
  },
  {
    "Structure string": "COc1cc2ncc(-c3cc(F)c(OC)c(NC(=O)c4cnn(C)c4)c3)n2cc1S(=O)(=O)C(C)(C)C",
    "Assayed system": "GST-RIPK2 fusion protein (human RIPK2, amino acids 1-310) (Homo sapiens)",
    "Experimental endpoint": "IC50",
    "Measurement": "> 0.02 µM"
  },
  {
    "Structure string": "CC(C)(C)S(=O)(=O)c1cn2c(-c3cc(F)c(N)nc3F)cnc2cc1OC1COC1",
    "Assayed system": "GST-RIPK2 fusion protein (human RIPK2, amino acids 1-310) (Homo sapiens)",
    "Experimental endpoint": "IC50",
    "Measurement": "0.0025 to 0.02 µM"
  }
]
